Assignment: determine reported DC50 for the given compounds.
# subjectOfTest: WIZ (Homo sapiens, UniProt O95785+Q96SW2)
# Construct: expressed in transfected cells
# Sequence (O95785 whole entry): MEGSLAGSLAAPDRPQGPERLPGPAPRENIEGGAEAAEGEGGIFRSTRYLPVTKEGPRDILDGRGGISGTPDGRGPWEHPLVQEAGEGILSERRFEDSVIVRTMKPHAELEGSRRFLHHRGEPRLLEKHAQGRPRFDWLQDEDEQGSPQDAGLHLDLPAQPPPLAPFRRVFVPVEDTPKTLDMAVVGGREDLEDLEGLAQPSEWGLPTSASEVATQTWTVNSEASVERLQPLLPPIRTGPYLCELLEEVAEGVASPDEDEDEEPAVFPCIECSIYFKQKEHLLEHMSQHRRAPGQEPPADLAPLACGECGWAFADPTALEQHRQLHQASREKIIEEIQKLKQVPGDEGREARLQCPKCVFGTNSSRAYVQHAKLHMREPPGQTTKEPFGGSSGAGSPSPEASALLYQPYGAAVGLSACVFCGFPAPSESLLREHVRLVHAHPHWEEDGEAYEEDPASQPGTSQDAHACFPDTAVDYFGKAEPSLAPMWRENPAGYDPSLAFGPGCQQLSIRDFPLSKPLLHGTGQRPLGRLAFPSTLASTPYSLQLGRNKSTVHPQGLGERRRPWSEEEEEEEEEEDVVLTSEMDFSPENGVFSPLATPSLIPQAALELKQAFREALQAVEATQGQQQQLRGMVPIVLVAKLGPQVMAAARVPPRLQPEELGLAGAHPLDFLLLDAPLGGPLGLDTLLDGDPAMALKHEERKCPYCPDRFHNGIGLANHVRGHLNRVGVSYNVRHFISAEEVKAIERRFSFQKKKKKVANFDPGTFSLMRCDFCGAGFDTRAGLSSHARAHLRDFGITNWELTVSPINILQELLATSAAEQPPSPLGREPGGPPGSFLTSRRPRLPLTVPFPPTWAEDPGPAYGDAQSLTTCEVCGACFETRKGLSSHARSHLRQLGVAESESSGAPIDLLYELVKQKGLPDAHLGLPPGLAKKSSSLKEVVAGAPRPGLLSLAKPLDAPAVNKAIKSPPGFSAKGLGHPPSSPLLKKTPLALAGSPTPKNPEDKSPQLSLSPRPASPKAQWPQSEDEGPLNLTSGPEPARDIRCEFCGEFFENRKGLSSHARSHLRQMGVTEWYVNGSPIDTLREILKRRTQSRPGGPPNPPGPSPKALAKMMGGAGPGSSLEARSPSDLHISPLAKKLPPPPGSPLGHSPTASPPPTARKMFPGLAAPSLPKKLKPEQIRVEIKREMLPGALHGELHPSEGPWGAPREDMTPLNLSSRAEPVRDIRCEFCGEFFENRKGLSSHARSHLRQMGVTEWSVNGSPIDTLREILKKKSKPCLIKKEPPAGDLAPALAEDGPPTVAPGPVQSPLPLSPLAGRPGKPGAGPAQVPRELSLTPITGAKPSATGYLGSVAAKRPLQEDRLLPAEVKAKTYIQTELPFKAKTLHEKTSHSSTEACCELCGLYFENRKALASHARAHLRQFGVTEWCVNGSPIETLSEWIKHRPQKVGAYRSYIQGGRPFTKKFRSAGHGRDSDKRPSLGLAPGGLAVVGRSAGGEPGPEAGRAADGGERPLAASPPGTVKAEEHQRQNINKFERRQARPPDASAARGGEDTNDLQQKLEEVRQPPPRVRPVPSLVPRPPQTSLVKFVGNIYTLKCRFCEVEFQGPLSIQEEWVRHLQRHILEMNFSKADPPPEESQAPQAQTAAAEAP
# Sequence (Q96SW2 whole entry): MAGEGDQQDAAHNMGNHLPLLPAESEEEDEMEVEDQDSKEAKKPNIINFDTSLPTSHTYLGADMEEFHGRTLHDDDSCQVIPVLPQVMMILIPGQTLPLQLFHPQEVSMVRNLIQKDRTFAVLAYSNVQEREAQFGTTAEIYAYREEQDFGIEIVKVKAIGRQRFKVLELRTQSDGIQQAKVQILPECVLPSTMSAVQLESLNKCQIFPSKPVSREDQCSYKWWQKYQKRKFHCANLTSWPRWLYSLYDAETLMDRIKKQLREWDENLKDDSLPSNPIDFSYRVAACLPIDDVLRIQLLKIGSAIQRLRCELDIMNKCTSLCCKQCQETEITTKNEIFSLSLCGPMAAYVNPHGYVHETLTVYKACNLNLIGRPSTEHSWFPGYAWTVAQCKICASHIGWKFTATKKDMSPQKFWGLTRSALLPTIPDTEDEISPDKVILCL
# Sequence (Q16531 whole entry partner): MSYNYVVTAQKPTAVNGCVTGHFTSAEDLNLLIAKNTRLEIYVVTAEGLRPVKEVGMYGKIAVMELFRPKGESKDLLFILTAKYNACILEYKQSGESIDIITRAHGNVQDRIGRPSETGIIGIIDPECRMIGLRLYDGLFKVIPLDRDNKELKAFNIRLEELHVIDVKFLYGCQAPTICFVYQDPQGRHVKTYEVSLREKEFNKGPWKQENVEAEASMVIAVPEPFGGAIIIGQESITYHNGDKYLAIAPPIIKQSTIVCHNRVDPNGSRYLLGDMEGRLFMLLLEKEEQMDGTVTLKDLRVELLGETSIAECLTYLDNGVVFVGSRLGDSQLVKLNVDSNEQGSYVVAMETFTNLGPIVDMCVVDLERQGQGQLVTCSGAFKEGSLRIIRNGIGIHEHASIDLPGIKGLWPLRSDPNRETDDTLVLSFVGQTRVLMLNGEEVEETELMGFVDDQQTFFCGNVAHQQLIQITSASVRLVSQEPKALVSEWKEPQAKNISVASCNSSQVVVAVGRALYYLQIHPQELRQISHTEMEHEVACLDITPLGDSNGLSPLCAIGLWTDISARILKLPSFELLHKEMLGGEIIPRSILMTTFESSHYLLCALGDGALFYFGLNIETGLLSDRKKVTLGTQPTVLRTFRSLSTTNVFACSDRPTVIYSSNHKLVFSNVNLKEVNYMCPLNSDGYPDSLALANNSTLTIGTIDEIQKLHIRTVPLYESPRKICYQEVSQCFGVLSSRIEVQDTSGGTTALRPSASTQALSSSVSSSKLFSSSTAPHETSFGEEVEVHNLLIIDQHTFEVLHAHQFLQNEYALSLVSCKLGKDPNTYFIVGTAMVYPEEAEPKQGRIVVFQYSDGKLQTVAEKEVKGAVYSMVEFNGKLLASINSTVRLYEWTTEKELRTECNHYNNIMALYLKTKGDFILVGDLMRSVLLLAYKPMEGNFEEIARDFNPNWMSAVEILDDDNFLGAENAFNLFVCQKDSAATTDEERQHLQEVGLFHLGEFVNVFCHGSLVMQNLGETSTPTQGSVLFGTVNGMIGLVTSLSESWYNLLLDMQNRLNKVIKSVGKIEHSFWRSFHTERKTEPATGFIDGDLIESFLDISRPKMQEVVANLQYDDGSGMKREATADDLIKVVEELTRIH
# assayDetails: Quantification of WIZ protein levels in HiBit tag fusion protein assay (293T cells)
# Type: cell-based
# appliedConditions: WIZ HiBit assay in 293T cells, about 18 hours, 10-point 5-fold dilution, top 25 μM; read-out: WIZ AC50

// query Which DC50 is reported for this compound? O=C1CCC(N2Cc3cc(O[C@@H]4CCCN(CC#CC5CC5)C4)ccc3C2=O)C(=O)N1 (stereo partly shown) [Example 25]
// result 7.5 nM

// query Which DC50 is reported for this compound? O=C1CCC(N2Cc3cc(O[C@@H]4CCCN(C5CCCCC5)C4)ccc3C2=O)C(=O)N1 (stereo partly shown) [Example 43]
// result 3.7 nM

// query Which DC50 is reported for this compound? C[C@H]1CC[C@@H](Oc2ccc3c(c2)CN(C2CCC(=O)NC2=O)C3=O)CN1C1CCC1 (stereo partly shown) [Example 82]
// result 0.5 nM

// query Which DC50 is reported for this compound? CCN1CC[C@H](C)[C@@H](Oc2ccc3c(c2)CN(C2CCC(=O)NC2=O)C3=O)C1 (mixture of isomers) [Example 35]
// result 26 nM

====

# subjectOfTest: WIZ (Homo sapiens, UniProt O95785+Q96SW2)
# Construct: expressed in transfected cells
# assayDetails: Quantification of WIZ protein levels in HiBit tag fusion protein assay (293T cells)
# Type: cell-based
# appliedConditions: HEK-293T, read-out: WIZ Amax
Assignment: determine reported remaining activity at 25 µM for the given compounds.
Please respond with the number in % and leave the unit unwritten.

// query Which remaining activity at 25 µM is reported for this compound? CCO[C@@H]1C[C@@H](Oc2ccc3c(c2)CN(C2CCC(=O)NC2=O)C3=O)CN(C2CCC2)C1 (stereo partly drawn) [Example 73]
// result 37.2

// query Which remaining activity at 25 µM is reported for this compound? CCN1CC(Oc2ccc3c(c2)CN(C2CCC(=O)NC2=O)C3=O)CCC1(C)C (stereo not drawn) [Example 88-2]
// result 20.5

// query Which remaining activity at 25 µM is reported for this compound? CCN1CCC(C)(C)C(Oc2ccc3c(c2)CN(C2CCC(=O)NC2=O)C3=O)C1 (single isomer, unassigned) [Example 48]
// result 102

// query Which remaining activity at 25 µM is reported for this compound? CCN1CCC2(CCC2)C(Oc2ccc3c(c2)CN(C2CCC(=O)NC2=O)C3=O)C1 (racemic) [Example 54]
// result 102

// query Which remaining activity at 25 µM is reported for this compound? CCN1CC2CC(Oc3ccc4c(c3)CN(C3CCC(=O)NC3=O)C4=O)C1C2 (racemic) [Example 62]
// result 72.9

// query Which remaining activity at 25 µM is reported for this compound? CCN1C[C@@H](O)C[C@@H](Oc2ccc3c(c2)CN(C2CCC(=O)NC2=O)C3=O)C1 (mixture of isomers) [Example 47]
// result 77.2

// query Which remaining activity at 25 µM is reported for this compound? CCN1CCC[C@H](Oc2ccc3c(c2)CN(C2CCC(=O)NC2=O)C3=O)C1 (stereo partly drawn) [Example 2]
// result 88.9

// query Which remaining activity at 25 µM is reported for this compound? CCN1CC[C@H](F)[C@@H](Oc2ccc3c(c2)CN(C2CCC(=O)NC2=O)C3=O)C1 (relative stereo) [Example 55]
// result 55.1

// query Which remaining activity at 25 µM is reported for this compound? CCN1CC[C@@H](C)[C@@H](Oc2ccc3c(c2)CN(C2CCC(=O)NC2=O)C3=O)C1 (mixture of isomers) [Example 46]
// result 101

// query Which remaining activity at 25 µM is reported for this compound? CCN1C[C@@H](F)C[C@@H](Oc2ccc3c(c2)CN(C2CCC(=O)NC2=O)C3=O)C1 (stereo partly drawn) [Example 59]
// result 35.6

// query Which remaining activity at 25 µM is reported for this compound? C[C@@H]1C[C@@H](Oc2ccc3c(c2)CN(C2CCC(=O)NC2=O)C3=O)CN(C2CCC2)C1 (stereo partly drawn) [Example 78]
// result 14.3

// query Which remaining activity at 25 µM is reported for this compound? CCN1C[C@H](F)C[C@@H](Oc2ccc3c(c2)CN(C2CCC(=O)NC2=O)C3=O)C1 (stereo partly drawn) [Example 60]
// result 63

// query Which remaining activity at 25 µM is reported for this compound? CCN1C[C@@H](C)C[C@@H](Oc2ccc3c(c2)CN(C2CCC(=O)NC2=O)C3=O)C1 (mixture of isomers) [Example 45]
// result 56.3

// query Which remaining activity at 25 µM is reported for this compound? CCN1CC[C@H](F)[C@H](Oc2ccc3c(c2)CN(C2CCC(=O)NC2=O)C3=O)C1 (relative stereo) [Example 58]
// result 39.3

// query Which remaining activity at 25 µM is reported for this compound? CCN1CCC2(CC2)[C@@H](Oc2ccc3c(c2)CN(C2CCC(=O)NC2=O)C3=O)C1 (stereo partly drawn) [Example 15]
// result 20
